System: CEM cells HIV-1 protection, formazan growth assay
protocol-summary: NCI AIDS Antiviral Assay
assay-conditions: measured here: growth of uninfected CEM cells
Method: The ability of compounds to protect human CEM cells from HIV-1 infection is measured as a screen for new compounds capable of inhibiting the HIV virus. Five concentrations of drug were tested on uninfected and infected cells and cell growth was measured using a soluble formazan assay. […] Compounds that provided at least 50% protection were retested. Compounds that provided at least 50% protection on retest were listed as moderately active. […]
// boundary case: IC50 equal to 40 µM maps to not fulfilled; strictly smaller maps to fulfilled

[
  {
    "molecule": "O=S(=O)(O)NC1CCCCC1",
    "qualitative-label": "not fulfilled"
  },
  {
    "molecule": "C1=C(c2ccccc2)N2CCN=C2S1",
    "qualitative-label": "fulfilled"
  },
  {
    "molecule": "CC(C)N=C(NC#N)NS(=O)(=O)c1cnccc1NC1CCCCCCC1",
    "qualitative-label": "not fulfilled"
  },
  {
    "molecule": "C[C@]12CCC3[C@@H](CC[C@@H]4c5nonc5CC[C@]34C)C1CCC2=O (stereo partly specified)",
    "qualitative-label": "not fulfilled"
  },
  {
    "molecule": "CC(C)C(=O)CC(Sc1ccc(N)cc1)c1ccccc1 (stereo unspecified)",
    "qualitative-label": "not fulfilled"
  },
  {
    "molecule": "CN(C(=O)c1ccco1)C(=S)N1CCN(c2ccccn2)CC1",
    "qualitative-label": "not fulfilled"
  },
  {
    "molecule": "COCn1cnc2c(=O)n(-c3ccc(OC)cc3)c(=S)n(-c3ccc(OC)cc3)c21",
    "qualitative-label": "not fulfilled"
  },
  {
    "molecule": "COC(=O)c1cc(S(=O)(=O)NC2=NCC(C)NN2)c(S)cc1Cl (stereo unspecified)",
    "qualitative-label": "fulfilled"
  },
  {
    "molecule": "Nc1ccc2oc(=O)ccc2c1",
    "qualitative-label": "fulfilled"
  },
  {
    "molecule": "COC(CC1(/C=C/O[Si](C(C)C)(C(C)C)C(C)C)C(=O)N(COCC[Si](C)(C)C)c2ccccc21)OC (stereo unspecified)",
    "qualitative-label": "fulfilled"
  },
  {
    "molecule": "O=C1Cc2c([nH]c3ccc(Cl)cc23)-c2ccccc2N1",
    "qualitative-label": "fulfilled"
  }
]
